Entries and their pEC50 values follow.
target: FGF receptor/BKL complex; test: FGF receptor potency in an Erk phosphorylation assay in HEK293 overexpressing human BKL; type: cell-based; settings: HEK293/BKL cells, pERK after 12 minutes, presence of 0.1% HSA; read-out: EC50 (0.1% HSA)
Sequence (Q86Z14 whole entry, one chain of several): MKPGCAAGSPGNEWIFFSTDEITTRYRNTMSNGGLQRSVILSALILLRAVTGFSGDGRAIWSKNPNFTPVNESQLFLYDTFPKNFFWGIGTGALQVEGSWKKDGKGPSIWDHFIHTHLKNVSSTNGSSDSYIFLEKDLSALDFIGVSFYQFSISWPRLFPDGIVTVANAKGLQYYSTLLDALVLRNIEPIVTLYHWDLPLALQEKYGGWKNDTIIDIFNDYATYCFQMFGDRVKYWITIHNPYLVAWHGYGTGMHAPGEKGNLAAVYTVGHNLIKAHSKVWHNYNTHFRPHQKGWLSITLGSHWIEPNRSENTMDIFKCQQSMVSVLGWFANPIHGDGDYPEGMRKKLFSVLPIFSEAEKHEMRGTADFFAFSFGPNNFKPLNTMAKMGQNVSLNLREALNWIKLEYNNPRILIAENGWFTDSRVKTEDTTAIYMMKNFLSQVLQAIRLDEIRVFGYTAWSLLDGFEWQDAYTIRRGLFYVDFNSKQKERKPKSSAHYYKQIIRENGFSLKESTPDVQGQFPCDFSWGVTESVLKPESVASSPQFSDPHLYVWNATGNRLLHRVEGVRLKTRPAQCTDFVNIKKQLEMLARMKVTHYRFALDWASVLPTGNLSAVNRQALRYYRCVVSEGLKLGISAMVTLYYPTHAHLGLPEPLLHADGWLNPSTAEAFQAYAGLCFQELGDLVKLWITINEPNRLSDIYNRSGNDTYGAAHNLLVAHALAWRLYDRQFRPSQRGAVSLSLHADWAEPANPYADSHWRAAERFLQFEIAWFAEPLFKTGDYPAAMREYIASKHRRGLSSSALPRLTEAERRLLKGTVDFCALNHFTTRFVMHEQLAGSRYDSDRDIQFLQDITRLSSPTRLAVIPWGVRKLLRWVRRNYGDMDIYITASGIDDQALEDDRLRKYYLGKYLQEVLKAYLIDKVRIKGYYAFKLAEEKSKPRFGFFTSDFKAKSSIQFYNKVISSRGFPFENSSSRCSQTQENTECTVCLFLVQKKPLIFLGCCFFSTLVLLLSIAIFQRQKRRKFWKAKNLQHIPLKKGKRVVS
pEC50: −log10 of the molar value.
readout: pEC50

>>> assayresult("20-[[(1S)-4-[2-[2-[2-[2-[2-[2-[[(1S)-5-acetamido-1-carboxy-pentyl]amino]-2-oxo-ethoxy]ethoxy]ethylamino]-2-oxo-ethoxy]ethoxy]ethylamino]-1-carboxy-4-oxo-butyl]amino]-20-oxo-icosanoic … (protein) HPIPDSSPLLQFGGQVRQRYLYTDDAQQTEAHLEIREDGTVGGAADQSPESLLQLKALKPGVIQILGVKTSRFLCQRPDGALYGSLHFDPEACSFRELLLEDGYNVYQSEAHGLPLHLPGQKSPHRDPAPRGPARFLPLPGLPPALPEPPGILAPQPPDVGSSDPLSLVGPSQGRSPSYCS")
7.28
>>> assayresult("S{Beta-179}-[2-[2-[[2-[2-[2-[[2-[2-[2-[[(4S)-4-carboxy-4-(15-carboxypentadecanoyl-amino)butanoyl]amino]ethoxy]ethoxy]acetyl]amino]ethoxy]ethoxy]acetyl]amino]-ethylamino]-2-oxoethyl]-Ala[Gln121,Leu168, … (protein) HPIPDSSPLLQFGGQVRQRYLYTDDAQQTEAHLEIREDGTVGGAADQSPESLLQLKALKPGVIQILGVKTSRFLCQRPDGALYGSLHFDPEACSFRELLLEDGYNVYQSEAHGLPLHLPGQKSPHRDPAPRGPARFLPLPGLPPALPEPPGILAPQPPDVGSSDPLSLVGPSQGRSPSCAS")
6.87
>>> assayresult("S{Beta-173}-[2-[2-[[2-[2-[2-[[2-[2-[2-[[(4S)-4-carboxy-4-(15-carboxypentadecanoyl-amino)butanoyl]amino]ethoxy]ethoxy]acetyl]amino]ethoxy]ethoxy]acetyl]amino]-ethylamino]-2-oxoethyl]-Ala[Gln121,Leu168, … (protein) HPIPDSSPLLQFGGQVRQRYLYTDDAQQTEAHLEIREDGTVGGAADQSPESLLQLKALKPGVIQILGVKTSRFLCQRPDGALYGSLHFDPEACSFRELLLEDGYNVYQSEAHGLPLHLPGQKSPHRDPAPRGPARFLPLPGLPPALPEPPGILAPQPPDVGSSDPLSLVGPSCGRSPSYAS")
8.40
>>> assayresult("S{Beta-175}-[2-[2-[[2-[2-[2-[[2-[2-[2-[[(4S)-4-carboxy-4-(15-carboxypentadecanoyl-amino)butanoyl]amino]ethoxy]ethoxy]acetyl]amino]ethoxy]ethoxy]acetyl]amino]-ethylamino]-2-oxoethyl]-Ala[Gln121,Leu168, … (protein) HPIPDSSPLLQFGGQVRQRYLYTDDAQQTEAHLEIREDGTVGGAADQSPESLLQLKALKPGVIQILGVKTSRFLCQRPDGALYGSLHFDPEACSFRELLLEDGYNVYQSEAHGLPLHLPGQKSPHRDPAPRGPARFLPLPGLPPALPEPPGILAPQPPDVGSSDPLSLVGPSQGCSPSYAS")
9.00
